- test: qHTS assay for small molecule activators of the human pregnane X receptor (PXR) signaling pathway (AID 720659)
- condition_details: DPX-2 HepG2 CYP3A4-luciferase, 24 h; series mostly up to 92.3 µM
Active and inactive are the calls of the source. How the calls were made is not given here.
reported_endpoint: outcome

Here are 8 molecules together with their reported answers.
INSERT INTO measurements (molecule, reported_endpoint, obs_value) VALUES
  ('C[C@](N)(Cc1ccc(O)c(O)c1)C(=O)O', 'outcome', 'inactive'),
  ('O=C(Nc1ccc([N+](=O)[O-])cc1Cl)c1cc(Cl)ccc1O', 'outcome', 'inactive'),
  ('NS(=O)(=O)c1cc2c(cc1Cl)NCNS2(=O)=O', 'outcome', 'inactive'),
  ('COc1ccc2[nH]cc(CCNC(C)=O)c2c1', 'outcome', 'inactive'),
  ('Cc1cn([C@H]2C=C[C@@H](CO)O2)c(=O)[nH]c1=O', 'outcome', 'inactive'),
  ('CC(C)Cc1ccc(C(C)C(=O)O)cc1 (stereo not given)', 'outcome', 'inactive'),
  ('Nc1ccn([C@H]2CC[C@@H](CO)O2)c(=O)n1', 'outcome', 'inactive'),
  ('O=c1[nH]cc(F)c(=O)[nH]1', 'outcome', 'inactive');

stdin: Name the recorded outcome for CC(C)(Oc1ccc(C2CC2(Cl)Cl)cc1)C(=O)O (stereo not given) .
stdout: inactive

stdin: Entry under review: CC#C[C@]1(O)CC[C@H]2[C@@H]3CCC4=CC(=O)CCC4=C3[C@@H](c3ccc(N(C)C)cc3)C[C@@]21C . Reported outcome?
stdout: inactive
